target: Phosphatidylinositol 4,5-bisphosphate 3-kinase catalytic subunit beta isoform (Homo sapiens)
Sequence (P42338 whole entry, canonical isoform): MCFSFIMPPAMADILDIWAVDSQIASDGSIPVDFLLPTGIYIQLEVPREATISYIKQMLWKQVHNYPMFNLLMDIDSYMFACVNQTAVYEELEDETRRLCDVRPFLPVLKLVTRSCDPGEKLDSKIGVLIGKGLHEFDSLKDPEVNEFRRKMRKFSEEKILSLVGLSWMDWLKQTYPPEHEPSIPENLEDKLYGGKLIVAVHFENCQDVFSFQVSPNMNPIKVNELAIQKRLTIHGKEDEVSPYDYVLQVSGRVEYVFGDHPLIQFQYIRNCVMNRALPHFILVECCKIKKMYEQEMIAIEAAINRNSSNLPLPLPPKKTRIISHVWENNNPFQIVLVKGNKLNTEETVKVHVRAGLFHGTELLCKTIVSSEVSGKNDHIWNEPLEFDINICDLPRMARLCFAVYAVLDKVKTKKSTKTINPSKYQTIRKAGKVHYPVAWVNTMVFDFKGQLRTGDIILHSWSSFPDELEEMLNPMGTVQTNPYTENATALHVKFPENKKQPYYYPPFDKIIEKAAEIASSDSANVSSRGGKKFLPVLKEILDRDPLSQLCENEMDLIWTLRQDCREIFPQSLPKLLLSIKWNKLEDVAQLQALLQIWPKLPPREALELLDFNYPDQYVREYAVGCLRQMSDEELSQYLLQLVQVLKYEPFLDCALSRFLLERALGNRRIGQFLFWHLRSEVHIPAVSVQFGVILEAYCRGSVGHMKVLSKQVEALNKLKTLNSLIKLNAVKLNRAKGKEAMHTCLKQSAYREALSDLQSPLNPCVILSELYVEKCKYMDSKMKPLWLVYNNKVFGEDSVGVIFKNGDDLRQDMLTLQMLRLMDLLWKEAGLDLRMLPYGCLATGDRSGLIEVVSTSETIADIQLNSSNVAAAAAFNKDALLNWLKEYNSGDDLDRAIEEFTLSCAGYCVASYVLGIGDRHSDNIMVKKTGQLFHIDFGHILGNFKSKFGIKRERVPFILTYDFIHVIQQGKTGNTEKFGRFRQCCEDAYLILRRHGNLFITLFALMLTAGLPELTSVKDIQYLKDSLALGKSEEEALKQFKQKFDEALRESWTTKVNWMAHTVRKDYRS
experiment_description: Inhibition of recombinant human N-terminal Myr signal and C-terminal Flag-tagged PI3K p110beta expressed in rat Rat1 cells
Assay type: cell-based
outcome_measure: IC50 (nM)
Numbers only, in nM.

Answered cases to consult:
CC(C)(O)C(=O)N1CC[C@](C)(N2CCc3c(-c4cnc(N)nc4)nc(N4CCOCC4)nc32)C1 :: 1000
CC(=O)N1CC[C@@](C)(N2CCc3c(-c4cnc(N)nc4)nc(N4CCOCC4)nc32)C1 :: 95
CC(C)(N)C(=O)N1CC[C@](C)(N2CCc3c(-c4cnc(N)nc4)nc(N4CCOCC4)nc32)C1 :: 330
CC(C)(C)OC(=O)N1CC[C@](CO)(Nc2cc(-c3cnc(N)nc3)nc(N3CCOCC3)n2)C1 :: 4600
CNS(=O)(=O)N1CC[C@](C)(N2CCc3c(-c4cnc(N)nc4)nc(N4CCOCC4)nc32)C1 :: 170
COC(=O)N1CC[C@](CO)(Nc2nc(N3CCOCC3)nc(-c3cnc(N)nc3)c2F)C1 :: 360

# evaluate next
The compound listed as Nc1ncc(-c2cc(N[C@@]3(CO)CCN(C(=O)OCC(F)F)C3)nc(N3CCOCC3)n2)cn1 shows IC50 equal to 1900

----------
experiment_description: AUC (0 to t) in Wistar Han rat at 2.3 mg/kg, iv
Format: ADME, organism-based
Design: dose 2.3 mg/kg
settings: in vivo
outcome_measure: AUC(0-t) (ng·h/mL)
One number for each entry, in ng·h/mL.

# AUC(0-t) (compound: Nc1ncc(-c2nc(N3CCOCC3)nc(N[C@@]3(COP(=O)(O)O)CCN(C(=O)OCC(F)F)C3)c2F)cn1 ) is 430

----------
Would you mind telling me the reported log10(IC50) of each entry?
target: Phosphatidylinositol 4,5-bisphosphate 3-kinase catalytic subunit delta isoform (Homo sapiens)
Sequence (O00329 whole entry): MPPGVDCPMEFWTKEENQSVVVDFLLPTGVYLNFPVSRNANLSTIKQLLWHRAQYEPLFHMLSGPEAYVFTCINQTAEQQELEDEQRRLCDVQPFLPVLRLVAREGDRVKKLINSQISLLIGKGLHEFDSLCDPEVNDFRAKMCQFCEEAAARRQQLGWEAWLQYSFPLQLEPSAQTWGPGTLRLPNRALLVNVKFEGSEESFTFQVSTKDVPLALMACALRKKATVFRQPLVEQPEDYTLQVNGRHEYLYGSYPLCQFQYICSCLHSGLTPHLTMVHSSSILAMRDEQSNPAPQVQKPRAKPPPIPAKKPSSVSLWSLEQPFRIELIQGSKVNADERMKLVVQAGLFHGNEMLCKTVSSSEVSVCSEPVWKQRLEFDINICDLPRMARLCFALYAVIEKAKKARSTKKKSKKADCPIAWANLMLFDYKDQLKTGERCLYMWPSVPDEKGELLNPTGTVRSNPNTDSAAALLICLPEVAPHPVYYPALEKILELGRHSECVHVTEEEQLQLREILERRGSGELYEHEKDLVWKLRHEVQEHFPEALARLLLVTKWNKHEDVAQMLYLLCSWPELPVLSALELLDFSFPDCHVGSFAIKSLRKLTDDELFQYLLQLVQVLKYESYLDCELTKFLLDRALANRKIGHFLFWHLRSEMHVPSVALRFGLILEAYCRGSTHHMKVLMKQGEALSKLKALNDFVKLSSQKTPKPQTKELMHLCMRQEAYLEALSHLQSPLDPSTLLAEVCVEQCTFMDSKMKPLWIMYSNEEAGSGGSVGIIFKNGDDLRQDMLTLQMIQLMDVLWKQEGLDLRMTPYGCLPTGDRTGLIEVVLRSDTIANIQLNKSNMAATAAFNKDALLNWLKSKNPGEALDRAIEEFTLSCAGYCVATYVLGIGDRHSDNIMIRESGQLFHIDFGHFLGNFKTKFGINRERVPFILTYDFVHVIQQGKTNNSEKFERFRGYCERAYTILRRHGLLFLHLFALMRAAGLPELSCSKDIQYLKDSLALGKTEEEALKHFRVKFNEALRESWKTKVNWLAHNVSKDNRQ
experiment_description: Inhibition of recombinant human N-terminal Myr signal and C-terminal Flag-tagged PI3K p110delta expressed in rat Rat1 cells
All values: log10 IC50 [nM].

Worked set:
CC(C)(C)OC(=O)N1CC[C@](C)(Nc2cc(-c3cnc(N)nc3)nc(N3CCOCC3)n2)C1 :: 2.66
C[C@]1(N2CCc3c(-c4cnc(N)nc4)nc(N4CCOCC4)nc32)CCN(S(C)(=O)=O)C1 :: 1.88
COC(=O)N1CC[C@](CO)(Nc2nc(N3CCOCC3)nc(-c3cnc(N)nc3)c2F)C1 :: 2.48

Each compound below has a reported value. Please supply its log10(IC50).
1. CC(C)(C)OC(=O)N1CC[C@](CO)(Nc2cc(-c3cnc(N)nc3)nc(N3CCOCC3)n2)C1
2. COC(=O)N1CC[C@](CO)(Nc2cc(-c3cnc(N)nc3)nc(N3CCOCC3)n2)C1
3. CNC(=O)N1CC[C@](C)(N2CCc3c(-c4cnc(N)nc4)nc(N4CCOCC4)nc32)C1
4. CC(C)(O)C(=O)N1CC[C@](C)(N2CCc3c(-c4cnc(N)nc4)nc(N4CCOCC4)nc32)C1
5. Nc1ncc(-c2nc(N3CCOCC3)nc(N[C@@]3(CO)CCN(C(=O)OCC(F)F)C3)c2F)cn1

1. 3.08
2. 3.36
3. 2.04
4. 2.18
5. 2.20

Please give log10(IC50) for each item listed below.
1. CC(C)(N)C(=O)N1CC[C@](C)(N2CCc3c(-c4cnc(N)nc4)nc(N4CCOCC4)nc32)C1
2. CC(C)C(=O)N1CC[C@](C)(N2CCc3c(-c4cnc(N)nc4)nc(N4CCOCC4)nc32)C1
3. Nc1ncc(-c2cc(N[C@@]3(CO)CCN(C(=O)OCC(F)F)C3)nc(N3CCOCC3)n2)cn1
4. CC(C)(C)OC(=O)N1CC[C@](C)(N2CCc3c(-c4cnc(N)nc4)nc(N4CCOCC4)nc32)C1
5. CNS(=O)(=O)N1CC[C@](C)(N2CCc3c(-c4cnc(N)nc4)nc(N4CCOCC4)nc32)C1
6. COC(=O)N1CC[C@](C)(N2CCc3c(-c4cnc(N)nc4)nc(N4CCOCC4)nc32)C1
7. CC(=O)N1CC[C@@](C)(N2CCc3c(-c4cnc(N)nc4)nc(N4CCOCC4)nc32)C1

[2.08, 1.23, 3.00, 1.96, 1.64, 1.11, 1.87]
